- Study System: TbTIM (triosephosphate isomerase from Trypanosoma brucei) (Trypanosoma brucei, UniProt P04789)
- Construct: homodimer; 250 residues per monomer
- Sequence (P04789 whole entry): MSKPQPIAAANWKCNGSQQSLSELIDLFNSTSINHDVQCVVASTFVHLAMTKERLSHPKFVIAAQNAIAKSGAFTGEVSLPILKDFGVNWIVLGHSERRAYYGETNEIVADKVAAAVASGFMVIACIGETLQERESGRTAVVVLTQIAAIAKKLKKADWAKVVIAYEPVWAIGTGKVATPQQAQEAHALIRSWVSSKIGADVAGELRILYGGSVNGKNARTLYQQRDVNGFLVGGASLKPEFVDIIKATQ
- Assay Info: residual activity after […] h preincubation; alpha-GPDH coupled assay, NADH at […] nm
- Assay Setup: read-out: I50
pIC50: −log10 of the molar value.
Overview of recorded pIC50 for various compounds

- Smiles Record: "COC(=O)Nc1nc2cc(Oc3ccc(Cl)c4ccccc34)ccc2[nH]1"
  pIC50: 4.09
- Smiles Record: "COC(=O)Nc1nc2cc(Oc3cccc4ccccc34)ccc2[nH]1"
  pIC50: 4.08
- Smiles Record: "CSc1nc2ccc(C(=O)N/N=C/c3ccc([N+](=O)[O-])o3)cc2[nH]1"
  pIC50: 4.14
